# method: CaMKII Cell-Based Activity: CaMKII activity in neonatal rat ventricular myocytes (NRVM) was measured by monitoring the phosphorylation level of phospholamban using high-content imaging. NRVMs were plated in a clear bottom 384-well plate in medium supplemented with 10% fetal bovine serum (FBS) and incubated at 37° C., 5% CO2 overnight. The medium was changed to a serum-free medium and compounds were dosed to the cells. The cells were incubated at 37° C., 5% CO2 for 4 hours and were then treated with 100 nM ATX-II (Alomone Labs) to activate CaMKII. 10 minutes after the addition of ATX-II, the cells were fixed with 4% formaldehyde followed by permeabilization with 0.1% triton X100. The fixed cells were stained with an anti-phospho-phospholamban primary antibody (Santa Cruz Biotechnology) and an Alexa488-labeled anti-rabbit IgG secondary antibody (Life Technologies Corporation) as well as Hoechst 33342 (Life Technologies Corporation). The cells were imaged using an ArrayScan VTI (Cellomics) and analyzed for cells containing a positive fluorescent signal at 485 nm, reported as % responder. The % responders were plotted against the compound concentration to determine the compounds EC50.
pEC50: −log10 of the molar value.
Note to self: values exactly at 7 are Condition met. So pEC50 at or above 7 is Condition met, below is Condition not met.

compound: CCN(CC)[C@@H](C)CNC(=O)c1cc(N)nc(-c2cnn3ccc(-c4ccccc4)nc23)c1
label-value: Condition met
//
compound: CCN(CC)[C@@H](C)CNC(=O)c1cc(-c2cnn3ccc(-c4cccs4)nc23)nc(N2C[C@H](O)[C@@H](O)C2)c1
label-value: Condition not met
//
compound: CC[C@@H](CNC(=O)c1cc(-c2cnn3ccc(-c4cccs4)nc23)nc(N2CC[C@H]2C(=O)NC)c1)N(CC)CCO
label-value: Condition met
//
compound: CCN(CC)[C@H](CNC(=O)c1ccnc(-c2cnn3ccc(-c4ccccc4)nc23)c1)COc1ncccn1
label-value: Condition met
//
compound: CN(C)c1cc(C(=O)N2CCCC[C@@H]2CN)cc(-c2cnn3ccc(-c4cccs4)nc23)n1
label-value: Condition met
//
compound: CC(C)(O)CNc1cc(C(=O)N2CC3CCC(C2)NC3)cc(-c2cnn3ccc(-c4cccs4)nc23)n1 (configuration not stated)
label-value: Condition not met
//
compound: CCN(CC)[C@@H](C)CNC(=O)c1cc(-c2cnn3ccc(-c4cccs4)nc23)nc(N2CC[C@H]2C(=O)N2CC(F)(F)C2)c1
label-value: Condition met

---

# method: CaMKII Cell-Based Activity: CaMKII activity in neonatal rat ventricular myocytes (NRVM) was measured by monitoring the phosphorylation level of phospholamban using high-content imaging. NRVMs were plated in a clear bottom 384-well plate in medium supplemented with 10% fetal bovine serum (FBS) and incubated at 37° C., 5% CO2 overnight. The medium was changed to a serum-free medium and compounds were dosed to the cells. The cells were incubated at 37° C., 5% CO2 for 4 hours and were then treated with 100 nM ATX-II (Alomone Labs) to activate CaMKII. 10 minutes after the addition of ATX-II, the cells were fixed with 4% formaldehyde followed by permeabilization with 0.1% triton X100. The fixed cells were stained with an anti-phospho-phospholamban primary antibody (Santa Cruz Biotechnology) and an Alexa488-labeled anti-rabbit IgG secondary antibody (Life Technologies Corporation) as well as Hoechst 33342 (Life Technologies Corporation). The cells were imaged using an ArrayScan VTI (Cellomics) and analyzed for cells containing a positive fluorescent signal at 485 nm, reported as % responder. The % responders were plotted against the compound concentration to determine the compounds EC50.
pEC50: −log10 of the molar value.
// reported pEC50 for each item listed
measured-metric: pEC50

compound: O=C(c1cc(-c2cnn3ccc(-c4cccs4)nc23)nc(N2CCN(C3COC3)CC2)c1)N1CC2CCC(C1)NC2 (centres undefined)
assay-value: 7.09
//
compound: Cc1cnc(-c2cnn3ccc(-c4ccccc4)nc23)cc1C(=O)N1CCCC[C@@H]1CN
assay-value: 7.48
//
compound: C[C@@H](CNC(=O)c1ccnc(-c2cnn3ccc(-c4cccs4)nc23)c1)NCCF
assay-value: 7.02
//
compound: CCN(CC)[C@@H](C)CNC(=O)c1cc(NCc2ncc[nH]2)nc(-c2cnn3ccc(-c4cccs4)nc23)c1
assay-value: 6.83
//
compound: CCN(CC)[C@@H](C)CNC(=O)c1cc(-c2cnn3ccc(-c4cccs4)nc23)nc(N2CCC23COC3)c1
assay-value: 7.26
//
compound: CCN[C@@H](C)CNC(=O)c1cc(-c2cnn3ccc(-c4cccs4)nc23)nc(N2CC[C@H]2C(=O)NC)c1
assay-value: 6.18
//
compound: CCN(CC)[C@@H](C)CNC(=O)c1cc(-c2cnn3ccc(-c4cccs4)nc23)nc(N2CC(F)C2)c1
assay-value: 7.69
//
compound: CCN(CC)[C@@H](C)CNC(=O)c1cc(OCCCOC)nc(-c2cnn3ccc(-c4cccs4)nc23)c1
assay-value: 7.42
//
compound: COC1CN(c2cc(C(=O)N3CC[C@H](N)C3)cc(-c3cnn4ccc(-c5cccs5)nc34)n2)C1
assay-value: 6.81
//
compound: CCN(CC)[C@@H](C)CNC(=O)c1cc(N[C@H](C)CO)nc(-c2cnn3ccc(-c4cccs4)nc23)c1
assay-value: 7.12
//
compound: CCN(CC)[C@@H](C)CNC(=O)c1cc(-c2cnn3ccc(-c4cccs4)nc23)nc(N2CCC(O)C(F)(F)C2)c1 (some centres undefined)
assay-value: 7.18
//
compound: CCN(CC)[C@@H](C)CNC(=O)c1cc(-c2cnn3ccc(-c4cccs4)nc23)nc(N2CC[C@H]2C(=O)NCC2CC2)c1
assay-value: 7.48
//
compound: CCN(CC)[C@@H](C)CNC(=O)c1cc(-c2cnn3ccc(-c4cccs4)nc23)nc(N2CC[C@@H](C(=O)NC)C2)c1
assay-value: 7.33
//
compound: CCN(CC)[C@@H](C)CNC(=O)c1cc(-c2cnn3ccc(-c4cccs4)nc23)nc(N2CC[C@H]2C(=O)N2CC(OC)C2)c1
assay-value: 7.49
